System: U251 CNS
TEST_SUMMARY: NCI tumour cell line growth inhibition, 48 h

MOLECULE	TESTED_TARGET	READOUT_QUALIFIER	TGI [µM]
C=CCN(CC=C)C(=O)[C@H](CC)[C@@H]1CC[C@@H](C)[C@@H]([C@H](C)[C@@H](O)[C@@H](C)C(=O)[C@H](CC)C2O[C@]3(C=C[C@@H](O)[C@]4(CC[C@@](C)([C@H]5CC[C@](O)(CC)[C@H](C)O5)O4)O3)[C@H](C)C[C@@H]2C)O1 (stereo partly specified)	U251 CNS	=	10.1
C=C(CCC=C(C)C)C1CC=C(C)CC1 (stereo unspecified)	U251 CNS	=	34.8
C[C@H]1C(=O)c2c(cc(O)c(C3OC(CO)C(O)C(O)C3O)c2O)OC1c1ccc(O)c(O)c1 (stereo partly specified)	U251 CNS	>	100
CCOC(=O)/C=C\C(C#N)(C#N)N=Cc1ccsc1	U251 CNS	=	33.1
O=C1C=C(C2=C(C3=CC(=O)c4ccccc4C3=O)C(=O)c3ccccc3C2=O)C(=O)c2ccccc21	U251 CNS	=	18.1
O=C(NCCCCCCCN1CCCCCCC1)C(C1CCCCC1)C1CCCCC1	U251 CNS	=	20.8
C=CC(=O)N[C@@H](/C=C/C(=O)OCC)Cc1ccc(-c2cc(Cl)cc(Cl)c2)cc1	U251 CNS	>	100
FC(F)(F)c1cccnc1Sc1nc2ccccc2s1	U251 CNS	>	100
O=C1C(Sc2ccc3ccccc3c2)=C(Sc2ccc3ccccc3c2)C(=O)c2ccccc21	U251 CNS	=	19.1
CCC(C)N1CN(c2ccccc2)C2(CCN(CCCSc3ccc(F)cc3)CC2)C1=O (stereo unspecified)	U251 CNS	=	13.7
COc1cc(C(=O)/C=C/c2c(C(F)(F)F)nc3ccccn23)cc(OC)c1OC	U251 CNS	=	3.31
CN(CCNC(=S)c1cn(C)c2c1ccc1ccccc12)CCNC(=S)c1cn(C)c2c1ccc1ccccc12	U251 CNS	>	100
COc1ccc(-n2c(C)nc3ccc(NC4OC(CO)C(O)C(O)C4O)cc3c2=O)cc1 (stereo unspecified)	U251 CNS	>	100
N#Cc1c(-c2ccccc2)cc(-c2ccccc2)n(C2OCC(O)C(O)C2O)c1=S (stereo unspecified)	U251 CNS	=	30.4
C=C(C)CCC1CC=[N+]([O-])OC1C(C)(C)C (stereo unspecified)	U251 CNS	>	100
O=[N+]([O-])c1cc(Cc2cc([N+](=O)[O-])c3cccnc3c2O)c(O)c2ncccc12	U251 CNS	=	19.1
O=S(=O)(NCCCNc1nccc(-c2c(-c3ccc(F)cc3)nc3sccn23)n1)c1ccc(F)cc1	U251 CNS	>	100
CSc1ccc2c(cc1=O)C(NC(=O)c1ccc(C#N)cc1)CCc1cc(O)c(O)c(O)c1-2 (stereo unspecified)	U251 CNS	=	45.3
O=c1cc(CNC2CC3CCC2C3)[nH]c(=O)[nH]1 (stereo unspecified)	U251 CNS	>	100
COc1ccc(C(=O)Oc2c(C#N)sc3c2c(=O)n(-c2ccccc2)c(=S)n3-c2ccccc2)cc1	U251 CNS	>	100
CC1CCC2(C)C(CC=C(C=O)C2(O)C=O)C12CO2 (stereo unspecified)	U251 CNS	=	9.37
O=C(O)C12CC3CC(C1)C2C=C3P(=O)(O)O (stereo unspecified)	U251 CNS	>	100
Cc1cccc(CNc2ncnc3[nH]ncc23)c1	U251 CNS	>	100
Cc1ccc(S(=O)(=O)N2CC(CCN)c3ccccc32)cc1 (stereo unspecified)	U251 CNS	=	18.4
C=C1C=CC2(Br)OC3CC(C)(Cl)C(Br)CC13C2(C)C (stereo unspecified)	U251 CNS	=	35.3
CNC(=O)N1N[C@H](c2ccccc2)[C@@H]1c1ccccc1	U251 CNS	=	43
CN(C)c1nc(N)c(C#N)c(C#N)c1C#N	U251 CNS	>	10
C[C@@]1(OC(=O)c2cc([N+](=O)[O-])cc([N+](=O)[O-])c2)C[C@@H]2CCCC[C@@H]21	U251 CNS	>	100
C=C1C2CCC3(CCC4C5(C)CCCC4(C=[N+](CCO)C5)C3C2)C1O (stereo unspecified)	U251 CNS	>	100
NC(=O)CC(N)c1nn[nH]n1 (stereo unspecified)	U251 CNS	>	100
Cc1ccc(/N=N/C(=NNC(=O)c2ccc(C)cc2)c2ccc(N(C)C)cc2)cc1	U251 CNS	>	100
O=C1CSC(c2ccccc2O)N1c1ccc(Oc2ccc(Cl)cc2)c(Cl)c1 (stereo unspecified)	U251 CNS	=	39.5
COc1cc(C(=O)C2CC3(CCC2(O)c2cc(OC)c(OC)c(OC)c2)CC(=O)Nc2ccccc2C3=O)cc(OC)c1OC (stereo unspecified)	U251 CNS	>	100
O=c1n(-c2ccccc2)c(=O)n2c(-c3ccccc3)c(-c3ccccc3)n12	U251 CNS	>	100
O=C(c1c(O)cc(O)cc1O)C1Cc2ccccc21 (stereo unspecified)	U251 CNS	>	100
NCc1ccc(-c2nc(-c3ccc(Cl)c(O)c3)c(-c3ccncc3)[nH]2)cc1	U251 CNS	>	25
c1ccc(COC2C3COC(O3)C(OCc3ccccc3)C2OCc2ccccc2)cc1 (stereo unspecified)	U251 CNS	>	100
O/N=C1/CCCc2nonc21	U251 CNS	>	100
Nc1n[nH]c(CCCCCCCc2nc(N)n[nH]2)n1	U251 CNS	>	100
CCCCCCCCCCCCC(O)C(=O)O (stereo unspecified)	U251 CNS	>	100
Cc1ccc(-n2c(-c3cc4c([nH]c5ccccc54)c(-c4cccc(O)c4)n3)n[nH]c2=S)cc1	U251 CNS	=	2.22
